molecular target: PAR4 (Homo sapiens (Human)); experiment: FLIPR assay in PAR4-expressing HEK293 cells (PAR4 antagonist activity, calcium mobilization); format: cell-based; details: FLIPR assay as described in Example A
RESULT_TYPE: IC50 (nM)
Number only, in nM; omit the unit.

Lookup result for COCOc1cccc2oc(-c3cn4nc(OC)sc4n3)cc12 [Example 217] ; measured IC50: 7.51

Lookup result for COc1cc2oc(-c3cn4nc([C@H](C)F)sc4n3)cc2cc1Cl [270-1] ; measured IC50: 9.53

Lookup result for CSc1nn2cc(-c3cc4ccccc4o3)nc2s1 [Example 1] ; measured IC50: 14

----------
biological target: PAR4 (Homo sapiens (Human), UniProt Q96RI0); assay: FLIPR assay in PAR4-expressing HEK293 cells (PAR4 antagonist activity, calcium mobilization); type: cell-based; settings: FLIPR assay as described in Example A
Sequence (Q96RI0 18-385): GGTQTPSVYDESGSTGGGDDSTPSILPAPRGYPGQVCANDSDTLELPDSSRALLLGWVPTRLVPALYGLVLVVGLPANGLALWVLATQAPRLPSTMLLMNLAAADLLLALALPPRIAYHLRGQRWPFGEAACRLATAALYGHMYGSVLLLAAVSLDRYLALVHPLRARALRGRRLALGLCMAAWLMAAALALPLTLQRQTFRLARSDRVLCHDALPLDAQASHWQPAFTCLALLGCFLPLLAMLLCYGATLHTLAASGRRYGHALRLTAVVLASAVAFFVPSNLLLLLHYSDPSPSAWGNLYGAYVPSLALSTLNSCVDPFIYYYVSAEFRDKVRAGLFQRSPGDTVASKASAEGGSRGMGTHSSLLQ
pIC50: −log10 of the molar value.
# label = true if pIC50 >= 7 else false

(Q) Please check the record COc1cc(OCc2cccc(OCc3cc(OC(C)C)cc(OC(C)C)c3)c2)c2cc(-c3cn4nc(OC)sc4n3)oc2c1 and state if its pIC50 is at or above 7.
(A) true

(Q) Please check the record COc1cc(OC)c2cc(-c3cn4nc(C(C)F)sc4n3)oc2c1 (stereo not drawn) and state if its pIC50 is at or above 7.
(A) true

(Q) Please check the record CSc1nn2cc(-c3cc4c(O)cccc4o3)nc2s1 and state if its pIC50 is at or above 7.
(A) false

(Q) Please check the record CCc1nn2cc(-c3nc4cc(C)c(C)cc4o3)nc2s1 and state if its pIC50 is at or above 7.
(A) false

(Q) Please check the record Cc1cc2nc(-c3cn4nc(C(C)(F)F)sc4n3)oc2cc1C and state if its pIC50 is at or above 7.
(A) false

(Q) Please check the record COc1nn2cc(-c3cc4cc(Cl)c(OC)cc4o3)nc2s1 and state if its pIC50 is at or above 7.
(A) true

(Q) Please check the record Fc1ccc2nc(-c3cn4nc(Br)sc4n3)sc2c1 and state if its pIC50 is at or above 7.
(A) false

(Q) Please check the record COc1cc(OC)c2nc(-c3cn4nc(SC)sc4n3)sc2c1 and state if its pIC50 is at or above 7.
(A) false

(Q) Please check the record CCc1nn2cc(-c3nc4ccc(OC5CCCCC5)cc4o3)nc2s1 and state if its pIC50 is at or above 7.
(A) false

(Q) Please check the record COCOc1cccc2oc(-c3cn4nc(SC)sc4n3)cc12 and state if its pIC50 is at or above 7.
(A) true

(Q) Please check the record COCCOc1cccc2oc(-c3cn4nc(OC)sc4n3)cc12 and state if its pIC50 is at or above 7.
(A) true

(Q) Please check the record COc1cc(OC[C@@H]2COC(C)(C)O2)c2cc(-c3cn4nc(OC)sc4n3)oc2c1 and state if its pIC50 is at or above 7.
(A) true

(Q) Please check the record COc1cc(OCc2cccc(OCc3cc(F)cc(F)c3)c2)c2cc(-c3cn4nc(OC)sc4n3)oc2c1 and state if its pIC50 is at or above 7.
(A) true

(Q) Please check the record COc1nn2cc(-c3nc4c(C)cccc4o3)nc2s1 and state if its pIC50 is at or above 7.
(A) true

(Q) Please check the record COc1cccc2oc(-c3cn4nc(SC)sc4n3)nc12 and state if its pIC50 is at or above 7.
(A) true

(Q) Please check the record CSc1nn2cc(-c3cc4c(OCc5cccc(OCc6ccccc6)c5)cc(O)cc4o3)nc2s1 and state if its pIC50 is at or above 7.
(A) true
